experiment: small-molecule binders of probe aLefty1, primary screen, biochemical, small-molecule microarray, 635/667 nm fluorescence (AID 1153); details: higher = more signal;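 also: score merges spot fluorescence with signal-to-noise ratio from the scanned slide images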
Given measured composite z-score, output T if it is greater than or equal to 0.4 and F if not.

stdin: Could you please find out whether OCCCC1=CC(c2ccc(CN3CCCC3)cc2)N(Cc2sc3ccccc3c2Cl)CC1 (configuration not stated) has composite z-score that meets 0.4 or exceeds it?
stdout: T

stdin: Another compound: COc1ccc([Si](C)(C)[C@H]2[C@H](CC(=O)N(CCO)Cc3ccccc3)O[C@@]3(C(=O)N(Cc4cccc(N5CCOC5=O)c4)c4ccccc43)[C@@H]2C)cc1
stdout: F

stdin: Another compound: COc1cc2c(cc1O)C(C)N(Cc1ccc([N+](=O)[O-])o1)CC2 (configuration not stated)
stdout: F

stdin: Another compound: COC(=O)c1cn(C[C@@H](Cc2ccccc2)NC(=O)N[C@H](CO)CCc2oc(C(C)=O)c(C(=O)OC)c2C(=O)OC)nn1
stdout: F

stdin: Another compound: CCCCCCc1nc(-c2cc(C)c(OC)c(C)c2)c(C)c2c1[Si](C(C)C)(C(C)C)OC2
stdout: F

stdin: Another compound: CC(C)(C)N1CC=CC23O[C@@H]4C=CCCOC(=O)C4[C@H]2C(=O)N(CCO)[C@@H]3C1=O (some centres not stated)
stdout: F

stdin: Another compound: [N-]=[N+]=NCc1ccccc1[C@H]1OC(c2ccc(OCCCO)cc2)=N[C@@]1(CCS(=O)(=O)c1ccccc1)C(=O)NCC(O)CO (some centres not stated)
stdout: T

stdin: Another compound: CN(C)c1ccc(C(O)C2C=CC3C(=O)N(c4ccccc4)C(=O)C3N2Nc2ccc([N+](=O)[O-])cc2)cc1 (configuration not stated)
stdout: F

stdin: Another compound: [N-]=[N+]=Nc1ccccc1[C@H]1OC(c2ccc(OCCCO)cc2)=N[C@@]1(Cc1ccccc1)C(=O)N1CCCCC1
stdout: T

stdin: Another compound: CC1CC/C=C\[C@H]2OC34C=CCN(c5ccc(Cl)cc5)C(=O)[C@H]3N(CCCCCO)C(=O)[C@]4(C)C2C(=O)O1 (some centres not stated)
stdout: F

stdin: Another compound: COc1ccc([Si](C)(C)[C@H]2[C@H](CCO)O[C@@]3(C(=O)N(Cc4cccc(N5C(=O)COc6ccccc65)c4)c4ccccc43)[C@@H]2C)cc1
stdout: F

stdin: Another compound: O=C1OCC=C[C@H]2OC34C=CCN(Cc5ccccc5)C(=O)[C@H]3N(CCCCCCO)C(=O)[C@@H]4[C@@H]12 (some centres not stated)
stdout: F

stdin: Another compound: COc1ccc(CCNC(=O)[C@@]2(Sc3ccc(C)cc3)CC(=O)N(C3Cc4ccccc4C3)[C@@H]2c2ccc(CO)cc2)cc1
stdout: F

stdin: Another compound: COc1ccc(C#Cc2ccc3c(c2)[C@]2(C(=O)N3)[C@H](c3ccc(O)cc3)N3[C@H](c4ccccc4)[C@H](c4ccccc4)OC(=O)[C@H]3[C@@H]2C(=O)O)cc1
stdout: T

stdin: Another compound: O=C1NC(=O)C2C1C=CC(C(O)c1c(F)cccc1Cl)N2Nc1ccc(Cl)cc1Cl (configuration not stated)
stdout: T

stdin: Another compound: COC(=O)[C@H](Cc1ccccc1)N1CC(/C=C/C2CC2)=C[C@H]1[C@H](O)Cc1ccccc1
stdout: F

stdin: Another compound: CC(=O)c1ccc(C(O)C2C=CC3C(=O)N(c4ccccc4)C(=O)C3N2Nc2ccc(C#N)cc2)cc1 (configuration not stated)
stdout: F

stdin: Another compound: COC(=O)[C@@]1(Cc2ccc(OC)cc2)[C@@H]2C(=CC(=O)[C@H]2CC(=O)C(=O)N(C)C)CN1C(=O)c1ccccc1
stdout: T

stdin: Another compound: CC(c1ccccc1)C(O)C1C=CC2C(=O)N(c3ccccc3)C(=O)C2N1Nc1ccc([N+](=O)[O-])cc1 (configuration not stated)
stdout: F

stdin: Another compound: CCCC[C@@H]1C[C@H]1[C@@H](NC(=O)c1ccccc1)c1ccc(C(F)(F)F)cc1
stdout: F

stdin: Another compound: CC(C)[Si](C#CCCCC#N)(O[C@H](c1ccccc1)c1cn([C@H](CO)Cc2ccccc2)nn1)C(C)C
stdout: F

stdin: Another compound: [N-]=[N+]=Nc1ccccc1[C@@H]1OC(c2ccc(OCCCO)cc2)=N[C@]1(Cc1ccccc1)C(=O)NCC(O)CO (some centres not stated)
stdout: T

---

system: Plasmodium falciparum Sir2 (PF13_0152, Sir2A); experiment: pfSir2 binders on small-molecule microarrays, primary screen, biochemical, small-molecule microarray, 635 nm fluorescence (AID 1098); conditions: small-molecule microarray binding, fluorescence 635 nm; higher = more signal;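 also: score merges spot fluorescence intensity with its signal-to-noise ratio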
ASSAY_READOUT: composite z-score
Could you keep your reply to the number by itself?

stdin: So what's the measured composite z-score for this one? O=C1C[C@@](C(=O)NCCN2CCOCC2)(c2ccc([N+](=O)[O-])cc2)[C@@H](c2ccc(CO)cc2I)N1C1CCCCC1
stdout: 0.979

stdin: Another compound: COC(=O)c1cn(C[C@@H](Cc2ccccc2)NC(=O)N[C@H](CO)CCc2oc(C(C)=O)c(C(=O)OC)c2C(=O)OC)nn1
stdout: 0.741

stdin: Another compound: COC(=O)[C@@]1(Cc2ccccc2)[C@H]2c3cc(C(=O)N(C)C)n(Cc4c(CO)[nH]cc(C)c4=O)c3C[C@H]2CN1C(=O)c1ccccc1
stdout: 0.42

stdin: Another compound: COCCOC(=O)N1C(=O)[C@@]2(c3cc(C#CC4=CCCCC4)ccc31)[C@H](c1ccc(O)cc1)N1[C@H](c3ccccc3)[C@H](c3ccccc3)OC(=O)[C@H]1[C@@H]2C(=O)N1CCN(c2ncccn2)CC1
stdout: -0.0148

stdin: Another compound: CCCNC(=O)[C@@]1(c2ccc([N+](=O)[O-])cc2)CC(=O)N(C2CCCCC2)[C@@H]1c1ccc(CO)cc1
stdout: 0.472

stdin: Another compound: NC(=O)NCC#Cc1ccc2c(c1)[C@]1(C(=O)N2)[C@H](C(=O)O)[C@H]2C(=O)O[C@H](c3ccccc3)[C@H](c3ccccc3)N2[C@@H]1c1ccc(OCCO)cc1
stdout: 1.49

stdin: Another compound: CC(C)(C)OC(=O)CC[C@]1(C(=O)NCC(O)CO)N=C(c2ccc(OCCCO)cc2)O[C@H]1c1ccccc1 (some centres undefined)
stdout: 0.835

stdin: Another compound: COc1ccc(C#Cc2ccc3c(c2)[C@]2(C(=O)N3)[C@H](c3ccc(O)cc3)N3[C@H](c4ccccc4)[C@H](c4ccccc4)OC(=O)[C@H]3[C@@H]2C(=O)O)cc1
stdout: 1.04

stdin: Another compound: COc1ccc([Si](C)(C)[C@@H]2[C@@H](CC(=O)N(CCO)Cc3ccccc3)O[C@]3(C(=O)N(Cc4cccc(N5C(=O)c6cccc7cccc5c67)c4)c4ccccc43)[C@H]2C)cc1
stdout: 1.5

---

Task for the reader: assign each of the following compounds its reported composite z-score.
molecular target: Focal adhesion kinase 1 (Homo sapiens) (UniProt Q05397); assay: small-molecule microarray binders of FAK, primary screen, biochemical, 635/667 nm fluorescence, BSA, DTT (AID 1130); conditions: PTK2 binding, 635 nm fluorescence, higher = more signal;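 also: composite of spot emission at 667 nm and signal to noise over triplicate slides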
Sequence (Q05397 whole entry, looked up): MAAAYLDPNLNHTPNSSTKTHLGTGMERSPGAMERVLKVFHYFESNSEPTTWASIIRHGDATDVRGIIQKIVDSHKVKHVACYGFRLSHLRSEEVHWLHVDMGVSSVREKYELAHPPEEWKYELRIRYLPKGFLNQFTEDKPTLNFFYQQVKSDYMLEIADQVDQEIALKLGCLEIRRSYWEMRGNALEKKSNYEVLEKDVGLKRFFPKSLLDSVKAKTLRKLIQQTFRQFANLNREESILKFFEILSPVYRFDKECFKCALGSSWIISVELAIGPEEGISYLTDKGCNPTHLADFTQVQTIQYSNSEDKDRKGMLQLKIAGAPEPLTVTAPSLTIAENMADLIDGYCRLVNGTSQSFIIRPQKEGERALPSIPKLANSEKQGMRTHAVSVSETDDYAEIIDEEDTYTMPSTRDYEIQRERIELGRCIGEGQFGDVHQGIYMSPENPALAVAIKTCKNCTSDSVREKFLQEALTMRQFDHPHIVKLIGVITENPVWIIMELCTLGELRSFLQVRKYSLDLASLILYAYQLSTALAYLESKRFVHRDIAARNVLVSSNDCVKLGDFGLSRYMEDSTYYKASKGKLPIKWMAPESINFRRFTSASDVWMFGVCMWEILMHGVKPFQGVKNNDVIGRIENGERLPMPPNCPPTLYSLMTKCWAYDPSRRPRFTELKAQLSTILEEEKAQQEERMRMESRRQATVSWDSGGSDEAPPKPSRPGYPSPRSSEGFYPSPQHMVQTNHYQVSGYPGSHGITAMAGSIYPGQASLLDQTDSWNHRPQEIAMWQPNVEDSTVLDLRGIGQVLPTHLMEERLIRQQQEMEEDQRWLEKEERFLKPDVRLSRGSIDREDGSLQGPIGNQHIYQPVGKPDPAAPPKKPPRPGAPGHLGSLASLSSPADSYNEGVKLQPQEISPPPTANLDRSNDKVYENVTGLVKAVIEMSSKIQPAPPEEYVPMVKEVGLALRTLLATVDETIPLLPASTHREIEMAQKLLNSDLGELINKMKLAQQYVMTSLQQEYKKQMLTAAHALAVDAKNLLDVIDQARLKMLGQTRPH
Could you keep your reply to the number by itself?

stdin: So what's the measured composite z-score for this one? CO[C@H]1O[C@H](CO)[C@@H](OC(=O)Nc2ccccc2-c2ccccc2)[C@H](OC(=O)Nc2ccc3c(c2)OCO3)[C@H]1OC(=O)Nc1ccc2c(c1)OCO2
stdout: 1.11

stdin: Another compound: COCCCNC(=O)[C@@]1(Cc2ccccc2N=[N+]=[N-])COC(c2ccc(OCCCO)cc2)=N1
stdout: 0.614

stdin: Another compound: COC(=O)[C@@]1(Cc2ccc(F)cc2)[C@H]2c3cc(C(=O)N(C)C)n(Cc4cc(F)cc5c4OCOC5)c3C[C@H]2CN1C(=O)c1ccccc1
stdout: 1.5

stdin: Another compound: COC(=O)[C@@]1(Cc2ccc(OC)cc2)[C@H]2c3cc(C(=O)N(C)C)n(CCO)c3C[C@H]2CN1C(=O)c1ccccc1
stdout: 1.45

stdin: Another compound: C=CCOC(=O)[C@H]1[C@@H]2C(=O)O[C@@H](c3ccccc3)[C@@H](c3ccccc3)N2[C@@H](c2ccc(OCCOC(=O)[C@H]3C[C@H]4C(=O)N[C@@H](CCCCNC(C)=O)C(=O)N4[C@H]3c3ccc(O)cc3)cc2)[C@]12C(=O)Nc1ccccc12
stdout: 0.765

stdin: Another compound: CC(C)(C)N1CC=CC23O[C@@H]4C=CCOC(=O)[C@@H]4[C@H]2C(=O)N(CCCCCCO)[C@@H]3C1=O (stereo partly specified)
stdout: 0.527

---

Task for the reader: assign each of the following compounds its reported composite z-score.
molecular target: Pro-neuregulin-1, membrane-bound isoform (Homo sapiens) (UniProt Q02297); test: NRG1 binders on small-molecule microarrays, primary screen, psychiatric disease protein project, biochemical, small-molecule microarray, fluorescence 635/667 (AID 1075); details: NRG1 binding, 635 nm fluorescence, higher = more signal;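 also: score combines 667 nm spot fluorescence with signal to noise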
Sequence (Q02297 whole entry, looked up, canonical isoform): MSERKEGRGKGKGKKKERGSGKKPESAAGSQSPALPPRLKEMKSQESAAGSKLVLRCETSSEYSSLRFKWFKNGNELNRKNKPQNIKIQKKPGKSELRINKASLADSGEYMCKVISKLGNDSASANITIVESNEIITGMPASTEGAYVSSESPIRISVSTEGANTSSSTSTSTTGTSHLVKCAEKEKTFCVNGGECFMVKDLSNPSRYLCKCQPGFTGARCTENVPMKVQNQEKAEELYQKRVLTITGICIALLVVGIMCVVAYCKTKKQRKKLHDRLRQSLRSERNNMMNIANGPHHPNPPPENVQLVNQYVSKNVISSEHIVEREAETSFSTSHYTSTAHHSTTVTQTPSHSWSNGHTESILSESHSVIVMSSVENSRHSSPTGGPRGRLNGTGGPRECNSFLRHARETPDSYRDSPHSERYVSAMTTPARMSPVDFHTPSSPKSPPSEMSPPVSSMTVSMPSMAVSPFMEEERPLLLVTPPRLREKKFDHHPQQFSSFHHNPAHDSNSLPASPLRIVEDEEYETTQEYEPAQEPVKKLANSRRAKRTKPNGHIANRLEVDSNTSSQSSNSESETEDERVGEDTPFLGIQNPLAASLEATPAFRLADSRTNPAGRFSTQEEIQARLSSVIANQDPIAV

stdin: Item COCCCNC(=O)[C@]1(CCS(=O)(=O)c2ccccc2)N=C(c2ccc(OCCCO)cc2)O[C@@H]1c1ccccc1N=[N+]=[N-] with Pro-neuregulin-1, membrane-bound isoform (Homo sapiens) (UniProt Q02297) - composite z-score?
stdout: 0.977

stdin: Another compound: [N-]=[N+]=NCc1ccccc1C[C@]1(C(N)=O)N=C(c2ccc(OCCCO)cc2)O[C@H]1c1ccccc1
stdout: 1.89

stdin: Another compound: COc1cc2c(cc1O)C(C)N(Cc1ccc([N+](=O)[O-])o1)CC2 (stereo unspecified)
stdout: 1.53

stdin: Another compound: CN1C(=O)C2C=CC(C(O)C#Cc3ccccc3)N(Nc3ccccc3)C2C1=O (stereo unspecified)
stdout: 1.86

stdin: Another compound: C=CCC(OC(C)=O)[C@@H]1[C@@H](N(Cc2cc3ccccc3o2)C(=O)c2ccc(C)cc2)c2cc(OCCCO)ccc2N1C(=O)Cc1ccc(OC)cc1 (stereo partly specified)
stdout: -0.433

stdin: Another compound: N#Cc1ccc(C(O)C2C=CC3C(=O)N(c4ccccc4)C(=O)C3N2Nc2ccccc2)cc1 (stereo unspecified)
stdout: 1.19
